Test system: Penicillium ochrochloron
measurementNotes: Fungicidal activity against Penicillium ochrochloron ATCC 9112 after 72 hrs by serial subcultivation method
Type: functional
conditionsUsed: ATCC 9112, 72 h
metric: MFC
Write your answer as a measured quantity: the number, then the unit.

Use these answered entries as a reference point.
O=C1N/C(=N\c2nccs2)S/C1=C\c1cccc(Cl)c1Cl
56.2 µM
O=C1N/C(=N\c2nccs2)S/C1=C\c1ccc(Br)cc1
27.3 µM
COc1ccc(OC)c(/C=C2\S/C(=N/c3nccs3)NC2=O)c1
116 µM

Q. Under Penicillium ochrochloron: MFC value of "O=C1N/C(=N\c2nc(-c3ccccc3)cs2)S/C1=C\c1cccc(Cl)c1" ?
A. 25.2 µM

Q. Likewise for "O=C1N/C(=N\c2nccs2)S/C1=C\c1ccc(F)cc1" ?
A. 65.4 µM

Q. Likewise for "O=C1N/C(=N\c2nc(-c3ccccc3)cs2)S/C1=C\c1ccc(Cl)cc1" ?
A. 27.3 µM

====

Tested on: Mus musculus
measurementNotes: Antiinflammatory activity in AKR mouse assessed as inhibition of carrageenan-induced paw edema at 0.01 mmol/kg, ip measured after 3.5 hrs of carrageenan-challenge
Type: functional
metric: inhibition in vivo at 10 µmol/kg (%)
Express the result in % but write the number alone.

Use these answered entries as a reference point.
Cc1csc(/N=C2\NC(=O)/C(=C/c3ccc(Cl)cc3)S2)n1
42
O=C1N/C(=N\c2nccs2)S/C1=C\c1c(Cl)cccc1Cl
58.5
O=C1N/C(=N\c2nc(-c3ccccc3)cs2)S/C1=C\c1cccc(Cl)c1
51
Cc1ccc(/C=C2\S/C(=N/c3nccs3)NC2=O)cc1
47
Cc1csc(/N=C2\NC(=O)/C(=C/c3ccccc3Cl)S2)n1
43

Q. Report inhibition in vivo at 10 µmol/kg for "O=C1N/C(=N\c2nccs2)S/C1=C\c1ccc(Br)cc1" please.
A. 42.2

Q. Likewise for "O=C1N/C(=N\c2nc(-c3ccccc3)cs2)S/C1=C\c1ccccc1" ?
A. 59.3

Q. Likewise for "O=C1N/C(=N\c2nccs2)S/C1=C\c1cc(Br)ccc1O" ?
A. 54.4

====

Tested on: Staphylococcus aureus
measurementNotes: Antibacterial activity against Staphylococcus aureus ATCC 6538 after 24 hr by microdilution test
Assay type: functional
conditionsUsed: ATCC 6538, 24 h
MIC less than 30 µM is rule met; MIC greater than or equal to 30 µM is rule not met.

O=C1N/C(=N\c2nccs2)S/C1=C\c1cccc(Br)c1
rule met

Q. Below 30 µM on MIC? Entry "COc1ccc(OC)c(/C=C2\S/C(=N/c3nccs3)NC2=O)c1"
A. rule not met

Q. Likewise for "O=C1N/C(=N\c2nccs2)S/C1=C\c1ccc(Cl)cc1Cl" ?
A. rule not met

Q. Likewise for "O=C1N/C(=N\c2nccs2)S/C1=C\c1ccc(F)cc1" ?
A. rule not met

Q. Likewise for "O=C1N/C(=N\c2nccs2)S/C1=C\c1cc(Br)ccc1O" ?
A. rule not met

Q. Likewise for "COc1ccccc1/C=C1\S/C(=N/c2nccs2)NC1=O" ?
A. rule not met

Q. Likewise for "Cc1cnc(/N=C2\NC(=O)/C(=C/c3ccc([N+](=O)[O-])cc3)S2)s1" ?
A. rule not met

Q. Likewise for CN[C@@H]1[C@H](O[C@H]2[C@H](O[C@H]3[C@H](O)[C@@H](O)[C@H](N=C(N)N)[C@@H](O)[C@@H]3N=C(N)N)O[C@@H](C)[C@]2(O)C=O)O[C@@H](CO)[C@H](O)[C@H]1O [STREPTOMYCIN] ?
A. rule not met

Q. Likewise for "O=C1N/C(=N\c2nc(-c3ccccc3)cs2)S/C1=C\c1ccc(Cl)cc1" ?
A. rule not met

Q. Likewise for "O=C1N/C(=N\c2nc(-c3ccccc3)cs2)S/C1=C\c1ccccc1" ?
A. rule not met

Q. Likewise for "O=C1N/C(=N\c2nccs2)S/C1=C\c1cccc(F)c1" ?
A. rule not met

Q. Likewise for "O=C1N/C(=N\c2nccs2)S/C1=C\c1ccc(Br)cc1" ?
A. rule met
